Reference source for all entries: patent US4436662A

LD50 values by entry
ASSAY METHOD TEXT: LD50 (po) acute lethality
Parameters: species or system mice
SETUP CONDITIONS: mouse, in vivo, printed in antimetrazol results table

[
  {
    "COMPOUND": "CN1CC2=C(CN=C(c3ccccc3Cl)c3cc(Cl)ccc32)C1=O",
    "LD50": "800 mg/kg"
  },
  {
    "COMPOUND": "CC1NC(=O)C2=C1c1ccc(Cl)cc1C(c1ccccc1Cl)=NC2 (centres unmarked)",
    "LD50": "> 1000 mg/kg"
  }
]
